- Assay System: Rac GTPase-activating protein 1 (Homo sapiens, UniProt Q9H0H5)
- Sequence (Q9H0H5 whole entry): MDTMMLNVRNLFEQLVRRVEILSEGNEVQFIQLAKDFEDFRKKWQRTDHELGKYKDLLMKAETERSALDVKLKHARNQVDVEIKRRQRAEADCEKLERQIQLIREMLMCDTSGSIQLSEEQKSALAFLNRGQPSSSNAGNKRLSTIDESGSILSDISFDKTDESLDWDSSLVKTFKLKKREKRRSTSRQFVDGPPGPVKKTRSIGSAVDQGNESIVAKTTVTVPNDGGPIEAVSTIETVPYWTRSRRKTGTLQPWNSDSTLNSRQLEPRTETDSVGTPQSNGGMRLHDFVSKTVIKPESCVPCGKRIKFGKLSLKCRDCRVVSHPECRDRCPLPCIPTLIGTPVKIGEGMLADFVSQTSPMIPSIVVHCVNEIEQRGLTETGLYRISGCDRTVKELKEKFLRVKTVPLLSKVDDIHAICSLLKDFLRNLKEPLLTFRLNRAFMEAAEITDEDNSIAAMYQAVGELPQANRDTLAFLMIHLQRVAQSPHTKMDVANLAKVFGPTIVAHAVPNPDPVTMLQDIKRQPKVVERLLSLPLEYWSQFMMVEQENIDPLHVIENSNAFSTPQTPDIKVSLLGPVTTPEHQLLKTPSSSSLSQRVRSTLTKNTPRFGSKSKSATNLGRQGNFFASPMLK
- Test Method Notes: blockers of MgcRacGAP-driven Rac1 GTP hydrolysis – biochemical, ADP Hunter fluorescence, primary and confirmatory, confirmation (AID 624330)
- Type: functional
Calls of active or inactive are those of the source. How the calls were made is not given here.
Known IC50 of a selection of compounds

Compound: O=C(COc1ccccc1C(=O)N/N=C\c1ccc(O)c(O)c1)N/N=C/c1ccc(O)c(O)c1
IC50: 21.1 µM (active)
//
Compound: O=S(=O)(NC1=NCCCCC1)c1ccc2sc(NS(=O)(=O)c3ccc4ccccc4c3)nc2c1
IC50: 156 µM (active)
//
Compound: Oc1cc(O)c2c(c1)O[C@H](c1ccc(O)c(O)c1)[C@H](O)C2 [(-)-EPICATECHIN]
IC50: 206 µM (active)
//
Compound: CSc1ccccc1NC(=O)CN(C)C(C)C(=O)NCc1ccc2c(c1)OCO2 (stereo not given)
IC50: 46.7 µM (active)
//
Compound: COc1cc(/C=N/Nc2ccccn2)cc(OC)c1O
IC50: 35 µM (active)
